- TARGET_OR_TEST_SYSTEM: T1, CRBN, Q96SW2;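 note: pooled lentiviral library of zinc finger degron-EGFP fusions in mCherry-positive Jurkat cells, FACS-sorted after compound exposure, with degron abundance counted by next-generation sequencing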
- T1 chain: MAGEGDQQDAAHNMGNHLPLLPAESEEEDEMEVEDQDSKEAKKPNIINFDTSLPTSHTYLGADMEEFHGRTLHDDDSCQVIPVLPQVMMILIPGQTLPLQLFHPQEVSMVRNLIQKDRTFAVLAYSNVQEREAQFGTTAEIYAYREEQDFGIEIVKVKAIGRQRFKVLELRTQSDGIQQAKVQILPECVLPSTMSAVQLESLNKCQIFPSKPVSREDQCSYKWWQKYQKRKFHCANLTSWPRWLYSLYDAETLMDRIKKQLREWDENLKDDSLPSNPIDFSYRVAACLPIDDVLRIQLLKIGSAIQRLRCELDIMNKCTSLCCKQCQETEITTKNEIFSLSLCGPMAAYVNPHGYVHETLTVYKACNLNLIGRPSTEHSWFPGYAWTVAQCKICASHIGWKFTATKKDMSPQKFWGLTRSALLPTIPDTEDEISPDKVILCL
- PROTOCOL: log2 fold change of degron read counts, EGFP-low vs EGFP+ sorted cells (limma voom), compound-induced degradation; higher = more compound-induced degradation of the degron-EGFP fusion; degrons are variants of IKZF1/3 zinc finger 2; compound dose not given here
- CONDITION_INFO: Jurkat; 18 h; compound: compound 33 (diphenyl IMiD analogue)
Whole data set: some 8,300 sequences, median “log2 fold change of degron read counts, EGFP-low vs EGFP+ sorted cells (limma voom), compound-induced degradation” near -1.1, cut for the highest 2% near 3.2. The sample holds the highest values, similar sequences and a random draw of the others, so the mix is not that of the screen.
MEASURE: log2 fold change of degron read counts
Simply state the number, no unit and no words.

{"SEQ_TEXT": "FFCEVCGAQFTQKGNLLRHIKL [46F_47F_49E_50V_52G_53A_54Q_55F_67L_, Q9UKT9]", "MEASURE": "log2 fold change of degron read counts", "REPORTED_RESULT": 2.42}
{"SEQ_TEXT": "LLCPICGFPCTQKGNLLRHIKL [46L_47L_49P_50I_52G_53F_54P_55C_67L_, Q9UKT9]", "MEASURE": "log2 fold change of degron read counts", "REPORTED_RESULT": 1.61}
{"SEQ_TEXT": "FVCEICGHPFTQKGNLLRHIKL [46F_47V_49E_50I_52G_53H_54P_55F_67L_, Q9UKT9]", "MEASURE": "log2 fold change of degron read counts", "REPORTED_RESULT": -1.45}

We next turn to a different sequence, shown below.
Which value of log2 fold change of degron read counts has been reported for FVCEQCGADFTQKGNLLRHIKL [46F_47V_49E_50Q_52G_53A_54D_55F_67L_, Q9UKT9] in the records?
-2.37
